Consider the following molecules; for each one, report its inhibition at 24 h, 10 µM.
Experiment: Cytotoxicity against human THP1-Blue ISG cells assessed as inhibition of cell growth at 10 uM incubated for 24 hrs by MTS assay relative to control
Format: toxicity, cell-based
The answer is to be given in %; state only the numeric part.

Task: So what does the record say about inhibition at 24 h, 10 µM for CC(C)(C)c1ccc(N2C(=O)c3ccccc3C(C(N)=O)C2c2cc3cc(-c4ccc(C(=O)Nc5ccc(O)c(NS(C)(=O)=O)c5)cc4)ccc3s2)cc1Cl (stereo not given) ?
Result: 15.9

Task: So what does the record say about inhibition at 24 h, 10 µM for CN(c1ccc(C(=O)Nc2ccc(O)c(NS(C)(=O)=O)c2)cc1)c1ccc(C2C(C(N)=O)c3ccccc3C(=O)N2c2ccc(C(C)(C)C)c(Cl)c2)cc1 (stereo not given) ?
Result: 1.2

Task: So what does the record say about inhibition at 24 h, 10 µM for CC(C)(C)c1ccc(N2C(=O)c3ccccc3C(C(N)=O)C2c2cc3cc(-c4ccc(C(=O)N[C@H]5CC[C@H](O)CC5)cc4)ccc3o2)cc1Cl (stereo not given in full) ?
Result: 67

Task: So what does the record say about inhibition at 24 h, 10 µM for CC(C)(C)c1ccc(N2C(=O)c3ccccc3C(C(N)=O)C2c2cc3cc(-c4ccc(C(=O)NC5CCN(S(C)(=O)=O)CC5)cc4)ccc3o2)cc1Cl (stereo not given) ?
Result: 35.2

Task: So what does the record say about inhibition at 24 h, 10 µM for CC(C)(C)c1ccc(N2C(=O)c3ccccc3C(C(N)=O)C2c2cc3cc(-c4ccc(C(=O)Nc5ccc(O)c(NS(C)(=O)=O)c5)cc4)ccc3o2)cc1F (stereo not given) ?
Result: 55.6
